Data provenance: patent US20250115596A1

# assay-procedure: physchem
# condition-label: organic solvent or mixture, thermodynamic from solid
value-type: solubility at 30 min (µg/mL)

INSERT INTO assay_data (compound, value_type, endpoint_unit, quantitative_result) VALUES
  ('CCCCCCCCCCCCCCCCCC(=O)O[C@H]1CC[C@@]2(C)C(=CC[C@H]3[C@@H]4CC[C@H]([C@H](C)CCCC(C)C)[C@@]4(C)CC[C@@H]32)C1 [cholesteryl stearate, reference compound]', 'solubility at 30 min', 'µg/mL', 26.2),
  ('CCCCCC=CCCC(=O)OCC(C(=O)O[C@H]1C[C@H]2CC[C@@H](C1)N2C)c1ccccc1 (some centres unmarked) [Compound 13, atropine dec-4-enoate]', 'solubility at 30 min', 'µg/mL', 4900),
  ('CCCCC/C=C\C/C=C\CCCCCCCC(=O)OCC(C(=O)O[C@H]1C[C@H]2CC[C@@H](C1)N2C)c1ccccc1 (some centres unmarked)', 'solubility at 30 min', 'µg/mL', 3870),
  ('CCCCCCCC/C=C\CCCCCCCC(=O)OCC(C(=O)O[C@H]1C[C@H]2CC[C@@H](C1)N2C)c1ccccc1 (some centres unmarked)', 'solubility at 30 min', 'µg/mL', 5000),
  ('CCCCCCCCCCCCCCCC(=O)OCC(C(=O)O[C@H]1C[C@H]2CC[C@@H](C1)N2C)c1ccccc1 (some centres unmarked) [Compound 7, atropine palmitate]', 'solubility at 30 min', 'µg/mL', 5610);

###

# assay-procedure: physchem
# condition-label: perfluorohexyloctane (F6H8), organic solvent or mixture, thermodynamic from solid
value-type: solubility at 30 min (µg/mL)

INSERT INTO results (compound, value_type, quantitative_result) VALUES
  ('CC(C)CCC[C@@H](C)[C@H]1CC[C@H]2[C@@H]3CC=C4C[C@@H](O)CC[C@]4(C)[C@H]3CC[C@]12C [cholesterol, reference compound]', 'solubility at 30 min', 79.7);
